Give pIC50 for every item shown.
target: Human TRPV1 (Homo sapiens (Human), UniProt Q8NER1); assay: pH-Based Assay (Protocol 2), Ca2+ response in TRPV1/CHO cells; assay type: cell-based; settings: pH 5.0-5.1 (H2SO4), Fura-2, read-out: TRPV1 IC50 Potency pH-Based Assay IC50
Sequence (Q8NER1 whole entry): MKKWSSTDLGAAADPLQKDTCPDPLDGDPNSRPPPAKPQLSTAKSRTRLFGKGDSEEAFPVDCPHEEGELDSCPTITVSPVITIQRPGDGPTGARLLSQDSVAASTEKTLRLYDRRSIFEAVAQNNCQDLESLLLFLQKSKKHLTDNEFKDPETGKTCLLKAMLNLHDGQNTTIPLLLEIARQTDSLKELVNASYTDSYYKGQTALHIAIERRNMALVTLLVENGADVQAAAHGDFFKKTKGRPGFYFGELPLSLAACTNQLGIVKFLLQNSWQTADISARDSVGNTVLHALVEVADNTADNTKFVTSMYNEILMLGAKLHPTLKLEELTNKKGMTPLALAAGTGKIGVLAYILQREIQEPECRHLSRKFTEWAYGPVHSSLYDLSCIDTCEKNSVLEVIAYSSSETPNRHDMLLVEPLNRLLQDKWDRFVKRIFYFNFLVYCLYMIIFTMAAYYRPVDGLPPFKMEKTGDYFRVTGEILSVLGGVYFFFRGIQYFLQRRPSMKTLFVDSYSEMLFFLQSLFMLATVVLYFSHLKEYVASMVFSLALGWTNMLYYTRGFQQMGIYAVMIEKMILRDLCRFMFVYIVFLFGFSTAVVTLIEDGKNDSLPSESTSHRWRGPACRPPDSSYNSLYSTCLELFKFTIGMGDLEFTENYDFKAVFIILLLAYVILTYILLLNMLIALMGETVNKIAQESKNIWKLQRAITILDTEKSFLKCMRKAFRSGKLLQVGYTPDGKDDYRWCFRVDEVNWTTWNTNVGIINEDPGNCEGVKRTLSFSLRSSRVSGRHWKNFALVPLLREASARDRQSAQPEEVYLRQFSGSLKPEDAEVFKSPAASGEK
Numbers only, as −log10 of the molar value.

Before answering, review these 5 worked examples.
- molecule smiles: "Cc1nnc(-c2cnc(C3=CCN(C(=O)Nc4ccc(C(C)(C)C)cc4)CC3)c(Cl)c2)o1"
  numeric value: 9.30
- molecule smiles: "O=C(Nc1ccc(C(F)(F)F)c(Cl)c1)N1CC=C(c2ncc(-c3nnc(CCO)o3)cc2Cl)CC1"
  numeric value: 7.22
- molecule smiles: "O=C(Nc1nc2ccc(F)cc2s1)N1CC=C(c2ncc(-c3cc(CO)on3)cc2Cl)CC1"
  numeric value: 7.47
- molecule smiles: "O=C(C#Cc1ccc(-c2nnc(CO)o2)cc1Cl)Nc1ccc(C(F)(F)F)c(Cl)c1"
  numeric value: 7.89
- molecule smiles: "Cc1cc(NC(=O)N2CC=C(c3ccc(-c4nnc(CO)o4)cc3Cl)CC2)ccc1C(F)(F)F"
  numeric value: 8.68

Now consider the entry below.
Query :: Which pIC50 is listed for Cc1cc(NC(=O)N2CC=C(c3ncc(-c4nnc(CO)o4)cc3C)CC2)ccc1C(F)(F)F ?
Result :: 9.00

----------
target: Human TRPV1 (Homo sapiens (Human), UniProt Q8NER1); experiment: Capsaicin-Based Assay (Protocol 2), TRPV1/CHO cells; assay type: cell-based; settings: capsaicin 100 nM final, Fluo-4, read-out: TRPV1 IC50 Potency Capsaicin-Based Assay IC50
endpoint name: log10(IC50) (log10 of the value in nM)
log10 IC50, nM

Recorded results for 6 compounds are shown here.
- molecule smiles: "O=C(NCCNc1ncc(-c2nnc(CO)o2)cc1Cl)Nc1ccc(C(F)(F)F)c(Cl)c1"
  log10(IC50): 2.55
- molecule smiles: "O=C(Nc1ccc(C(F)(F)F)c(Cl)c1)N1CC=C(c2ncc(-c3nnc([C@H](O)CO)o3)cc2Cl)CC1"
  log10(IC50): 2.17
- molecule smiles: "O=C(Nc1ccc(C(F)(F)F)c(Cl)c1)N1CC=C(c2ncc(Cc3nnc(CO)o3)cc2Cl)CC1"
  log10(IC50): 1.59
- molecule smiles: "O=C(Nc1ccc(C(F)(F)F)c(Cl)c1)N1CC=C(c2ncc(N3C[C@@H](O)[C@@H](O)C3=O)cc2Cl)CC1"
  log10(IC50): 2.51
- molecule smiles: "O=C(Nc1ccc(C(F)(F)F)cn1)N1CCC(F)(c2ncc(-c3nc(CO)no3)cc2Cl)CC1"
  log10(IC50): 1.22
- molecule smiles: "Cc1cc(-c2ccc(CO)o2)cnc1C1(F)CCN(C(=O)Nc2ccc(C(F)(F)F)c(Cl)c2)CC1"
  log10(IC50): 2.53

Here is another compound to look at.
Query :: Reported log10(IC50), compound Cc1cc(NC(=O)N2CC=C(c3ncc(Cc4ncco4)cc3Cl)CC2)ccc1C(F)(F)F : ____
Result :: 2.35

Value source: patent US9156830B2
